Assay: ATG_BRE_CIS: Attagene CIS-FACTORIAL HepG2 Assay for human Bone Morphogenetic Protein (BMP) Response Element (BRE) (AID 2282933)
Settings: HepG2 BMP response element reporter, Attagene transcription factor profiling; actives raise or lower the signal
Calls of active or inactive are those of the source. Rule for the calls: active = hit-call score of the fitted dose curve at least 0.9, where 1 is the maximum; inactive = score below 0.9.
In this exercise, the only acceptable responses are TRUE for active, FALSE for inactive

The examples below pair each entry with its known result.
Ask: # lookup: test call for O=P(O)(O)Oc1ccccc1
Reply: FALSE

Ask: Field entry: COc1ccc2nc(N)sc2c1
Reply: FALSE

Ask: What do you have for CCCCCCCC/C=C\CCCCCCCC(=O)O ?
Reply: FALSE

Ask: Same lookup for C=C[Si](OC(C)=O)(OC(C)=O)OC(C)=O , please.
Reply: FALSE

New cases:
Ask: # fetch the recorded call for CCOc1ccc(N)c([N+](=O)[O-])c1 here
Reply: FALSE

Ask: Likewise for O=C(c1ccc(O)cc1)c1ccc(O)cc1O ?
Reply: TRUE

Ask: Now consider [Cl][Bi]([Cl])([c]1ccccc1)([c]1ccccc1)[c]1ccccc1 .
Reply: TRUE

Ask: Record: CC(C)=CC1CC(C)CCO1 (stereo unspecified)
Reply: FALSE

Ask: Now give it for CCCCCCCCc1ccc(Nc2ccc(CCCCCCCC)cc2)cc1 too.
Reply: FALSE

Ask: Please give the result for CCC(=O)Oc1ccc(/C(CC)=C(\CC)c2ccc(OC(=O)CC)cc2)cc1 too.
Reply: FALSE

Ask: Let us now turn to O=C(O)CC(C(=O)O)C(CC(=O)O)C(=O)O (stereo unspecified)
Reply: FALSE

Ask: Next compound up: CC/C=C\CCOC(=O)CCCCC
Reply: FALSE

Ask: Lookup CC(C)CCCCCOC(=O)CCS
Reply: FALSE

Ask: Another: Nc1ccc(N=Nc2ccccc2)c(N)n1
Reply: FALSE

Ask: Thanks! And Cc1cc(=O)n(-c2ccccc2)n1C ?
Reply: FALSE

Ask: Param item: CC=C1CC2C=CC1C2 (stereo unspecified)
Reply: FALSE

Ask: Same thing, different compound: O=Nc1ccc(O)cc1
Reply: FALSE

Ask: // query: CCCCCCCCCCOC(C)=O
Reply: FALSE

Ask: Consider next the compound CC(C)(C)c1ccc(N)cc1 in the same way.
Reply: FALSE

Ask: Lookup CCC(Cc1ccccc1)(C(=O)c1ccc(N2CCOCC2)cc1)N(C)C (stereo unspecified)
Reply: FALSE

Ask: Please give the result for CC(CC=O)CCCC(C)(C)O (stereo unspecified) too.
Reply: FALSE

Ask: Please give the result for CNC(=S)NN too.
Reply: FALSE

Ask: Another compound to look at: CCN(CCO)c1cccc(C)c1
Reply: FALSE

Ask: Check CC1OC1C1CCC2(C)OC2C1 (stereo unspecified) too.
Reply: FALSE

Ask: Consider next the compound CCCCCCCC(C)=O in the same way.
Reply: FALSE
